Taken from patent US20030068675.

- target.or.system: ZFP SBS#1330 (synthetic)
- Sequence (chain, as listed by the source): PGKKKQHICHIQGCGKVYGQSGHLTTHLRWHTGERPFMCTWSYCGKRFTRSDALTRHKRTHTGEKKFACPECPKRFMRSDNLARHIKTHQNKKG
- test: EMSA
- measurement.context: tags: MBP fusion
pKd: −log10 of the molar value.
parameter.measured: pKd

binder: GAGGTGTGA (dsDNA) DNA 1: GAGGTGTGA DNA 2: TCACACCTC
data.value: 9.76
